Values were extracted from patent US20250387366A1.

assay: Toxicokinetics of levcromakalim in plasma, BID T.O. bilateral formulation 3d for 28 days in rabbits (Example 12, Table 11); type: in vivo, rabbit; conditions: female, DB, rabbit, plasma, topical or ocular, 0.03 mg, females, 0.03 mg/eye/dose BID OU T.O. formulation 3d, Day 28, rabbit plasma

STRUCTURE SMILES	UNIT SPEC	Tmax
CC1(C)Oc2ccc(C#N)cc2[C@@H](N2CCCC2=O)[C@@H]1O	min	40.2

---

assay: Toxicokinetics of levcromakalim in plasma, BID T.O. bilateral formulation 3d for 28 days in rabbits (Example 12, Table 11); type: in vivo, rabbit; details: female, DB, rabbit, plasma, topical or ocular, 0.06 mg, females, 0.06 mg/eye/dose BID OU T.O. formulation 3d, Day 1, rabbit plasma

COMPOUND	UNIT SPEC	half-life
CC1(C)Oc2ccc(C#N)cc2[C@@H](N2CCCC2=O)[C@@H]1O [levcromakalim]	h	1.77

---

assay: Toxicokinetics of levcromakalim in plasma, BID T.O. bilateral formulation 3d for 28 days in rabbits (Example 12, Table 11); format: in vivo, rabbit; settings: male, DB, rabbit, plasma, topical or ocular, 0.03 mg, males, 0.03 mg/eye/dose BID OU T.O. formulation 3d, Day 1, rabbit plasma

STRUCTURE SMILES	AUC(0-t), ng·h/mL
CC1(C)Oc2ccc(C#N)cc2[C@@H](N2CCCC2=O)[C@@H]1O	3.96
